Source: paper PMC5710753

- Target of assay: OXE receptor (Homo sapiens, UniProt Q8TDS5)
- Sequence (Q8TDS5 whole entry): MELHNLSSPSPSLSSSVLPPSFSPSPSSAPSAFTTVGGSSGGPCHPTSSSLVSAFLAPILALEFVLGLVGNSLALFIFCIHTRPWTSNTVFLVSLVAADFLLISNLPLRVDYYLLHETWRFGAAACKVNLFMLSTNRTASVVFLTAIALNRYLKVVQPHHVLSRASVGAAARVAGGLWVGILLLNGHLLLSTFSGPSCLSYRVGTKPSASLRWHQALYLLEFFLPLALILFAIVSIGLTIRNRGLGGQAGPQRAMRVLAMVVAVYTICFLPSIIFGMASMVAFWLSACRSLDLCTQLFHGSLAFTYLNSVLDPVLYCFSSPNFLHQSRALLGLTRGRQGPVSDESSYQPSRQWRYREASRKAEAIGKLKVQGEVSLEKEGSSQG
- Method notes: Inhibition of 5-oxo-ETE-induced calcium mobilization in human neutrophils
Readout: IC50 (nM)
Numeric answer only, unit nM assumed.

What does the data say about its IC50? Entry: "CCCCC[C@H](O)c1c(C(=O)C[C@H](C)CC(=O)O)c2cc(Cl)ccc2n1C"
1600

----------
- Format: in vivo, cynomolgus monkeys
- Recorded conditions: female, cynomolgus monkey, plasma, po, 30 mg/kg
Readout: Tmax

What does the data say about its Tmax? Entry: CCCCC[C@H](O)c1c(C(=O)C[C@H](C)CC(=O)O)c2cc(Cl)ccc2n1C [y1]
≤ 1 h
